Test: Biodistribution in Daudi xenograft bearing mice
Assay type: in vivo, mouse
Conditions: female, CB-17 SCID, mouse, spleen, iv, with AMD3100, 50 µg per animal, coinjected (CXCR4 competition), total radioactivity, 1h p.i., coinjection of 50 µg AMD3100/animal; n=1; read-out: Biodistribution spleen, + AMD3100
Method: The biodistribution of selected compounds was investigated in Daudi (human B-cell lymphoma) xenograft bearing female CB-17 SCID mice (6-8 weeks, Charles River, Sulzfeld, Germany), [29]. […] Animals (n=4-5 per group) were injected intravenously with 5-10 MBq (0.08-0.11 nmol peptide per mouse) of the respective ^68Ga- and^ 177Lu-labeled CXCR4 ligands in PBS (100 µL) into the tail vein under isoflurane anesthesia. CXCR4-specificity of binding was determined by coinjection of 50 µg AMD3100 per mouse. […]
Where a SMILES comes first, the peptide text is derived from it. Side-chain parts run from the residue outwards. [ ]: non-standard residue; d: D form. The star is where a group is joined. DOTA = O=C(O)CN1CCN(CC(=O)O)CCN(CC(=O)*)CCN(CC(=O)O)CC1; 2Nal = N[C@@H](Cc1ccc2ccccc2c1)C(=O)O; dNMeOrn = CN[C@H](CCCN)C(=O)O; 4Abz = Nc1ccc(C(=O)O)cc1
measuredQuantity: tissue uptake at 1 h
Record the result as a number with its unit.

[ask] Recorded tissue uptake at 1 h of C[C@@H](NC(=O)[C@@H](CCCNC(=N)N)NC(=O)CN1CCN(CC(=O)O)CCN(CC(=O)O)CCN(CC(=O)O)CC1)C(=O)Nc1ccc(C(=O)NCCC[C@@H]2C(=O)N[C@@H](CCCNC(=N)N)C(=O)N[C@@H](Cc3ccc4ccccc4c3)C(=O)NCC(=O)N[C@H](Cc3ccc(O)cc3)C(=O)N2C)cc1 [[^177Lu]DOTA-r-a-ABA-CPCR4, metal not drawn] (cyclo([2Nal]G[dY][dNMeOrn]([4Abz-dA-dR-DOTA])R)) , please.
[reply] 1.11 %ID/g
